tested on: MOLT-4 leukemia; assay: NCI tumour cell line growth inhibition, 48 h
REPORTED ENDPOINT: TGI

* N#CC1(c2nc3ccccc3o2)C(=O)C(=O)N(c2ccc(Cl)c(Cl)c2)C(=O)C1=O | > 100 µM
* COC(=O)CC1(O)C(C=C(C)C)C(C(=O)OC)C(=O)C(C(=O)OC)C1C(=O)OC (stereo not given) | > 100 µM
* CCOc1cc2ncc(C#N)c(Nc3ccc(F)c(Cl)c3)c2cc1NC(=O)/C=C/CN(C)C | > 4.91 µM
* COc1ccc(/C=N/n2c(C)n[nH]c2=O)cc1 | > 100 µM
* CCCC(=O)N[C@@H](Cc1cc(I)c(O)c(I)c1)C(=O)NCCCNCCCCNCCCNC(=O)[C@@H](N)CCCN=C(N)N | > 100 µM
